- Particulars: 313.15 K; 101.33 kPa; Liquid
Mark satisfied for reported viscosity of 50 mPa·s or greater; mark not satisfied for anything smaller.

Compound	Cat
CCCCC(=O)[O-].C[NH2+]CCO [2-hydroxy-N-methylethanaminium pentanoate]	satisfied

-- ask Test whether the compound CC(=O)[O-].C[NH2+]CCO [N-methyl-2-hydroxyethylammonium acetate] records viscosity of 50 mPa·s or higher.
-- reply not satisfied

-- ask Test whether the compound CC(C)C(=O)[O-].C[NH2+]CCO [2-hydroxy-N-methylethanaminium isobutyrate] records viscosity of 50 mPa·s or higher.
-- reply satisfied

-- ask Test whether the compound C[NH2+]CCO.O=C[O-] [2-hydroxy-N-methylethanaminium formate] records viscosity of 50 mPa·s or higher.
-- reply not satisfied

-- ask Test whether the compound CCC(=O)[O-].C[NH2+]CCO [2-hydroxy-N-methylethanaminium propionate] records viscosity of 50 mPa·s or higher.
-- reply satisfied
